tested on: OVCAR-8 ovarian; experiment: NCI-60 one-dose screen, 48 h (100 = growth as untreated, 0 = no growth, -100 = all killed); settings: 10 µM unless noted
This is part of a sample that, as a whole, favours compounds with a hit. Of some 83,000 tested, about 20% had one in any assay.
growth vs 70%: at or above is condition met, below is condition not met.

Answer whether growth of COc1cc(NC(C)CCCN)c2nc(C)ccc2c1OC (centres undefined) is greater than or equal to 70%.
condition met

Answer whether growth of NCCCOc1cc(Cl)ccc1NC(=O)c1cc2ccccc2cc1OCCCN is greater than or equal to 70%.
condition not met

Answer whether growth of C[n+]1c2ccccc2c(Nc2ccc(NS(=O)(=O)CCCCN=C(N)N)cc2)c2ccc(N)cc21 is greater than or equal to 70%.
condition not met

Answer whether growth of CC1(C)NCCC[C@]2(C)[C@H]3CC=C4[C@@H]5C[C@](C)(COC(=O)c6ccccc6C(=O)O)CC[C@]5(C)CC[C@@]4(C)[C@]3(C)CC[C@@H]12 is greater than or equal to 70%.
condition met

Answer whether growth of CCN(CC)c1ccc2nc3ccc(N=Nc4ccc(O)cc4)cc3[n+](-c3ccccc3)c2c1 is greater than or equal to 70%.
condition not met

Answer whether growth of Cc1ccc(NCc2cn(-c3ccc(C(=O)O)cc3)nc2-c2ccc(C(=O)O)cc2)cc1 is greater than or equal to 70%.
condition met

Answer whether growth of CCCCCSc1ccc2nc(NC(=O)OCC)sc2c1 is greater than or equal to 70%.
condition not met

Next up:
Answer whether growth of [2H]c1nc(=Nc2cc(NC(=O)C=C)c(N(C)CCN(C)C)cc2OC)[nH]c(-c2cn(C([2H])([2H])[2H])c3ccccc23)c1[2H] is greater than or equal to 70%.
condition not met

---

tested on: UO-31 renal; assay: NCI-60 one-dose screen, 48 h; details: 10 µM unless noted
This is part of a sample that, as a whole, favours compounds with a hit. Of some 83,000 tested, about 20% had one in any assay. Calls of active or inactive are those of the source. How the source made its calls: active means growth percent below 10; inactive means the rest.
Assign a class; possible classes are TRUE (active), FALSE (inactive)

Could you please tell me the result logged for CCOC(=O)C1=C(c2ccccc2)NC(=O)NC1CN1C(=O)c2ccccc2C1=O (stereo not given) in this assay?
FALSE

Could you please tell me the result logged for COc1ccc(/C=C(/C(=O)N2CCN(c3ccc(C)cc3)CC2)c2cc(OC)c(OC)c(OC)c2)cc1N in this assay?
FALSE

Could you please tell me the result logged for COC(=O)c1ccc2[nH]c(O)c(C(=Nc3ccc(N(C)C(=O)CN4CCN(C)CC4)cc3)c3ccc(C)cc3)c2c1 in this assay?
TRUE

Could you please tell me the result logged for O=C(O)c1occ(Cl)c1Cl in this assay?
FALSE

Could you please tell me the result logged for CCCCCCCCCCC1OC(C)CC(C)O1 (stereo not given) in this assay?
FALSE

Others:
Could you please tell me the result logged for CCCCCCC(C(=O)OCC)(C(=O)OCC)C1CCCCCC1 in this assay?
FALSE

Could you please tell me the result logged for COc1ccc(CN2C(=O)/C(=C\C(=O)c3ccc(OCCN4CCCCC4)cc3)c3ccccc32)cc1 in this assay?
FALSE

Could you please tell me the result logged for COc1cc2ncnc(-n3ncc4cc(NC(=O)Nc5ccccc5)ccc43)c2cc1OC in this assay?
TRUE

Could you please tell me the result logged for O=C(Nc1ccc(-n2cc(-c3ccncc3)c(-c3ccc(Cl)c(O)c3)n2)cc1)c1cc(Cl)cc(Cl)c1 in this assay?
FALSE

Could you please tell me the result logged for CCOC(=O)C1CCCN1C(=O)C1(NC(C)=O)CCCC1 (stereo not given) in this assay?
FALSE

---

system: SF-268 CNS; assay: NCI-60 one-dose screen, 48 h (100 = growth as untreated, 0 = no growth, -100 = all killed); settings: 10 µM unless noted
This is part of a sample that, as a whole, favours compounds with a hit. Of some 83,000 tested, about 20% had one in any assay.
Listed below: growth values for each entry.
Form entry: value (%) — number only.

Form field: reported growth of CCCCCCNC(=O)Oc1ccc(/C(=C(/C)Cc2ccc(OC)cc2)c2ccc(OCCN(C)C)cc2)cc1
72.3

Form field: reported growth of BrCCCOc1ccc(Oc2ccc(OCCCBr)cc2)cc1
111

Form field: reported growth of Cc1cc2cn3c4ccc(O)cc4[nH]c(=O)c3c2cc1C
15.4

Form field: reported growth of O=C(/C=C/c1ccc(Cl)cc1)c1ccc(Cl)cc1
98.3

Form field: reported growth of CC1C(=O)CCCC1=O
112

Okay, now this molecule:
Form field: reported growth of COC(=O)c1c[n+]([O-])ccc1OC
116

---

Listed below: growth values for each entry.
tested on: SK-MEL-28 melanoma; assay: NCI-60 one-dose screen, 48 h (100 = growth as untreated, 0 = no growth, -100 = all killed); details: 10 µM unless noted
About 83,000 compounds went through this panel and 20% of them were active in at least one assay; those are over-represented in the sample as a whole.
Form entry: value (%) — number only.

Worked set:
Form field: reported growth of COC(=O)/C(Br)=C/c1c[nH]c2ccc(Br)cc12
105

Form field: reported growth of CN1CCN(Cc2ccc(NC(=O)c3cncc(C#Cc4c(N)ncc5ccc(F)cc45)c3)cc2C(F)(F)F)CC1
-84.9

Form field: reported growth of COc1nc(OC)nc(-c2cc(-c3cc(OC)c(OC)c(OC)c3)no2)n1
115

Okay, now this molecule:
Form field: reported growth of Cc1nc2c(nnn2-c2ccccc2)c2nc(-c3ccc(Cl)cc3)oc(=O)c12
102

---

test system: SNB-75 CNS; assay: NCI-60 one-dose screen, 48 h (100 = growth as untreated, 0 = no growth, -100 = all killed); details: 10 µM unless noted
The panel holds about 83,000 compounds, 20% with a hit somewhere; the sample as a whole holds those more often. Calls of active or inactive are those of the source. Rule for the calls: active = growth percent below 10; inactive = the rest.
Listed below: growth values for each entry.

Worked set:
Form field: reported growth of Cc1c([C@H](C(Cl)Cl)[C@H](O)[C@H]2C[C@H](C)C(=O)O2)ccc2c1C(=O)[C@H]1[C@H]2C[C@@H](Br)[C@@]23O[C@@H](CO[C@H]2O)CC13C (stereo not given in full)
58.4% (inactive)

Form field: reported growth of O=C(CCCC(=O)Nc1ccc(Cn2nnc3cc(Cl)c(Cl)cc32)cc1)Nc1ccc(CN2N=NC3C=C(Cl)C(Cl)=CC32)cc1 (stereo not given)
70.3% (inactive)

Form field: reported growth of C[C@@H](c1ccc2c(c1)[nH]c1ccc(Cl)cc12)c1nc2ccccc2[nH]1
62.4% (inactive)

Form field: reported growth of COC(=O)C(Cc1cnc[nH]1)N1CC(=O)N2[C@@H](c3ccccc3)SC[C@H]2C1=O (stereo not given in full)
120% (inactive)

Form field: reported growth of N#CC1=C(N2CCOCC2)NC2c3ccccc3Sc3ccccc3N2C1=N (stereo not given)
94.1% (inactive)

Others:
Form field: reported growth of Clc1ccc(N/N=C(\c2ccccc2)c2ccccn2)nc1
25.2% (inactive)

Form field: reported growth of COc1cc(OC)c2c(=O)cc(-c3ccccc3)oc2c1
91.8% (inactive)

Form field: reported growth of COC1NC(Cl)=C(C#N)C(C#N)(C#N)C1(C)C (stereo not given)
105% (inactive)

Form field: reported growth of Cc1ncc(C(=O)Nc2ccc(CN3CCN(C)CC3)c(C(F)(F)F)c2)cc1C#Cc1c(N)ncc2ccccc12
-90.6% (active)

Form field: reported growth of c1cc[c]([Bi]([c]2ccccc2)[c]2ccccc2)cc1
76.9% (inactive)

Form field: reported growth of Nc1ccc(S(=O)(=O)Nc2cc(F)cc(F)c2)cc1
92.8% (inactive)

Form field: reported growth of COc1ccc(-c2cn3ccnc3c(-c3ccc4ncn(C5CCCCC5)c4c3)n2)cc1
-26.3% (active)

Form field: reported growth of Nc1ccc(N=Nc2ccccc2)c2cc(S(=O)(=O)O)ccc12
82.5% (inactive)

Form field: reported growth of CCCCS(=O)(=O)c1cc(Nc2ccc(O)c3c2C(=O)c2ccccc2C3=O)ccc1C
106% (inactive)

---

tested on: OVCAR-4 ovarian; experiment: NCI-60 one-dose screen, 48 h; details: 10 µM unless noted
Compounds without any hit were thinned out: in the full panel of roughly 83,000, 20% have a hit. Activity calls are given as the source filed them. The calls were made as follows: active = growth percent below 10; inactive = the rest.
Assign a class; possible classes are Y = active, N = inactive

A selection of reference data follows.
Could you please tell me the result logged for Nc1ccc(S(=O)(=O)c2ccc(NO)cc2)cc1 in this assay?
N

Could you please tell me the result logged for CCCC(CCC)Oc1ccc(CCCC2=C(O)c3ccccc3C(=O)C2=O)cc1 in this assay?
N

Could you please tell me the result logged for COC(=O)c1ccc2[nH]c(O)c(C(=Nc3ccc(N(C)C(=O)CN4CCN(C)CC4)cc3)c3ccc(C)cc3)c2c1 in this assay?
Y

Could you please tell me the result logged for NC(CSC(c1ccccc1)(c1ccccc1)c1ccccc1)C(=O)NCC(=O)O (stereo not given) in this assay?
N

Could you please tell me the result logged for O=C(c1ccccc1)c1ccccc1-c1ccccc1 in this assay?
N

Next up:
Could you please tell me the result logged for COc1cc(-c2nn(-c3ccc(NC(=O)c4ccc(Cl)c(Cl)c4)cc3)cc2-c2ccncc2)ccc1Cl in this assay?
N
